Target: Caspase-1 (Homo sapiens)
Test: Inhibition of caspase1 in differentiated human THP-1 cells at 100 ug/ml after 24 hrs by fluorometric assay
Format: cell-based
Please provide measured inhibition for the entries that follow.
Numeric only. Scale: %

Entry C=C(C)C1=CC[C@@]2(C)[C@@H](C[C@]3(C)C(=C)[C@@]2(C(=O)OC)C(=O)[C@@](C)(O)C3=O)[C@]1(C)CCC(=O)O : reported inhibition = ?
0

Entry C=C1[C@@]2(C)C[C@H]3[C@]4(C)CC[C@@H](O)C(C)(C)[C@H]4CC[C@]3(C)[C@]1(C(=O)OC)C(=O)[C@@](C)(O)C2=O : reported inhibition = ?
68

Entry C=C1[C@@]2(C)C[C@H]3[C@]4(C)CCC(=O)C(C)(C)[C@H]4CC[C@]3(C)[C@]1(C(=O)OC)C(=O)[C@@](C)(O)C2=O : reported inhibition = ?
97

Entry C=C1[C@@]2(C)C[C@H]3[C@]4(C)CCC(=O)OC(C)(C)[C@@H]4CC[C@]3(C)[C@]1(C(=O)OC)C(=O)[C@@](C)(O)C2=O : reported inhibition = ?
77

Entry C=C1[C@@]2(C)C[C@@H]3[C@](C)(CC=C4C(C)(C)OC(=O)CC[C@]43C)[C@]1(C(=O)OC)C(=O)[C@@](C)(O)C2=O : reported inhibition = ?
100

Entry C=C1[C@@]2(C)C[C@H]3C(C)=C4CC(=O)OC(C)(C)C4=CC[C@]3(C)[C@]1(C(=O)OC)C(=O)[C@@](C)(O)C2=O : reported inhibition = ?
89
